Data credit: PubChem BioAssay (NCI)

- Test system: ACHN renal
- test: NCI-60 one-dose screen, 48 h
- testContext: 10 µM unless noted
This is part of a sample that, as a whole, favours compounds with a hit. Of some 83,000 tested, about 20% had one in any assay. Activity calls are given as the source filed them. How the source made its calls: active means growth percent below 10; inactive means the rest.
Form entry, call: pick from 1 (active), -1 (inactive)

Some solved entries appear below for comparison.
compound | assignedClass
CCOC(=O)c1c2c(n3ccc(NC(=O)OC(C)(C)C)cc13)C(=O)c1ncccc1C2=O | 1
CCc1ccccc1-n1c(-c2ccc(Cl)cc2)cc(-c2ccc(Cl)cc2)c(C#N)c1=O | -1

Query :: What was the test verdict on CC(C)(C)c1ccc(/C=C/C(=O)Nc2ccc(O)cc2)cc1 ?
Result :: -1

Query :: What was the test verdict on COc1ccc(N=Nc2ccc(O)c(=O)cc2)cc1 ?
Result :: 1

Query :: What was the test verdict on COc1ccc(-c2[nH]c(=S)n(C(CC3(C)NCC(=O)N3n3c(-c4ccccc4)cc(C)nc3=S)c3ccc(OC)cc3)c(=O)c2Br)cc1 (stereo not drawn) ?
Result :: -1

Query :: What was the test verdict on CC1OC(O[C@H]2/C=C/C=C/C=C/C=C/C=C/C=C/C=C/[C@H](C)[C@@H](O)[C@@H](C)[C@H](C)OC(=O)CC(O)CC(O)CCC(O)C(O)CC(O)C[C@]3(O)C[C@H](O)C(C(=O)O)C(C2)O3)C(O)[C@H](N)C1O (stereo partly drawn) ?
Result :: 1

Query :: What was the test verdict on COc1cc(/C=C/C(=O)c2cccc(-n3cc(-c4ccccc4)[nH]c3=O)c2)ccc1O ?
Result :: -1

Query :: What was the test verdict on COc1cc(/C=N/NC(=O)Cn2c(C(C)C)nc3ccccc32)ccc1O ?
Result :: -1

* * *

- System: HOP-62 NSCLC
- test: NCI-60 one-dose screen, 48 h
- testContext: 10 µM unless noted
This is part of a sample that, as a whole, favours compounds with a hit. Of some 83,000 tested, about 20% had one in any assay. Calls of active or inactive are those of the source. Rule for the calls: active = growth percent below 10; inactive = the rest.
Form entry, call: pick from TRUE (active), FALSE (inactive)

Some solved entries appear below for comparison.
molecule | assignedClass
N=C(N)c1ccc(-c2ccc(-c3cncc4ccccc34)s2)s1 | TRUE
NC(N)=NN=C(c1ccccc1)c1ccccc1 | FALSE

Query :: What was the test verdict on CC1=NOC(=O)/C1=C\c1ccc(O)cc1 ?
Result :: FALSE

Query :: What was the test verdict on COc1ccc(-c2nc3c(c(=O)n2C(C)=O)C(c2ccc(Cl)cc2)c2sc4c(Cl)cccc4c2O3)cc1 (stereo not given) ?
Result :: TRUE

Query :: What was the test verdict on CC(=O)OC[C@H]1OC(Sc2sc(C(=O)c3ccc(Br)cc3)c(N)c2-c2nc3ccccc3s2)[C@H](OC(C)=O)[C@@H](OC(C)=O)[C@@H]1OC(C)=O (stereo not given in full) ?
Result :: FALSE

Query :: What was the test verdict on Cc1ccc(Cl)c(NS(=O)(=O)c2ccc(-c3cnc(C4CC4)o3)cc2)c1 ?
Result :: FALSE

* * *

- System: A549/ATCC NSCLC
- test: NCI-60 one-dose screen, 48 h (100 = growth as untreated, 0 = no growth, -100 = all killed)
- testContext: 10 µM unless noted
This is part of a sample that, as a whole, favours compounds with a hit. Of some 83,000 tested, about 20% had one in any assay. The source made the active and inactive calls. Rule for the calls: active = growth percent below 10; inactive = the rest.
measureName: growth

Examples from the recorded data:
compound | systemName | growth
COc1ccc(-c2nc3c(N)c(CO)c(C)nc3o2)cc1 | A549/ATCC NSCLC | 92.4% (inactive)
C=C(C)[C@@H]1CC[C@]2(C(=O)NC3CCCCC3)CC[C@]3(C)[C@H](CC[C@@H]4[C@@]5(C)CCC(=O)C(C)(C)[C@@H]5CC[C@]43C)[C@@H]12 | A549/ATCC NSCLC | 85.6% (inactive)
Cn1cc(-c2csc(-c3ccccc3)n2)c2cccnc21 | A549/ATCC NSCLC | -12.8% [100 µM] (active)
COc1ccc(-c2csc(C3=C(O)CN(CCCN4CCCC4=O)C3=N)n2)cc1OC | A549/ATCC NSCLC | 91.6% (inactive)
CC(=O)N1C(=S)NC(=O)C1Cn1c(-c2ccccc2)nc2ccccc21 (configuration not stated) | A549/ATCC NSCLC | 102% (inactive)
CCN(CC)CCCCCCNc1cc(OC)c(Cl)c2cccnc12 | A549/ATCC NSCLC | 96.7% (inactive)
C(=N\Nc1ncc(-c2cc3cc4c(cc3o2)OCO4)s1)/c1ccco1 | A549/ATCC NSCLC | -10.1% (active)
COc1ccc(-c2nc(SCC(=O)Nc3nc(-c4ccccc4)cs3)[nH]c(=O)c2C#N)cc1 | A549/ATCC NSCLC | 104% (inactive)
O=C1NC(=Nc2ccc(Cl)cc2)S/C1=C\c1cn(-c2ccccc2)nc1-c1ccccc1 | A549/ATCC NSCLC | 34.9% (inactive)
S=C(c1ccc2c(c1)OCO2)N1CCN(c2ccccc2Cl)CC1 | A549/ATCC NSCLC | 98.2% (inactive)

NCCCNc1nc2ccccc2c2c(=O)c3cccc(Cl)c3sc12 yielded growth of -2.55% (active)

Cn1c2c(c3ccc(Cl)c(Cl)c31)C(C#N)C1(CCNCC1)NC2=O (configuration not stated) yielded growth of 31.2% (inactive)
